Sourced from ChEMBL document CHEMBL1201862

List of EC50 values.
- target.or.test.system: UniProt P10520
- Sequence (P10520 whole entry): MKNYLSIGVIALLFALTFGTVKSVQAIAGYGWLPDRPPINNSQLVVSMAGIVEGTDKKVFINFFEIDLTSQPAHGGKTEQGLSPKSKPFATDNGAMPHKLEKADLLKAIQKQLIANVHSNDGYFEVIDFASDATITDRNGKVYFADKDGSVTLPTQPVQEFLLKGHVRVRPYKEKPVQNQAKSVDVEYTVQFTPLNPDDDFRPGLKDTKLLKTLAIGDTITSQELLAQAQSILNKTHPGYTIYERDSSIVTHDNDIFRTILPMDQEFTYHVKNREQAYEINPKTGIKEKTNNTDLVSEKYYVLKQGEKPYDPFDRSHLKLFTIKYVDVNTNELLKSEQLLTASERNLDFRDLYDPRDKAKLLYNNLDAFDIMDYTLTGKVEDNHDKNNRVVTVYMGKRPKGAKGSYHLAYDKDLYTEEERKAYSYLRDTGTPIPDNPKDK
- assay.remarks: S. pyogenes streptokinase expression inhibitors, potency, dose response, plasminogen activation absorbance, OD405 (AID 1914);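 further: secreted streptokinase activity via plasminogen activation per viability signal from cell pellet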
- Type: functional, Streptococcus pyogenes M1 GAS
Calls of active or inactive are those of the source.
measured.quantity: EC50

[[record]]
compound = "CC(C)=CCc1c2c(c(O)c3c(=O)c4c(oc13)-c1cc(O)c(O)cc1OC4C=C(C)C)C=CC(C)(C)O2 (stereo not given) [CYCLOHETERPHYLLIN]"
measured = "> 150 µM (not active)"

[[record]]
compound = "O=c1cc(-c2ccccc2)[nH]n1-c1nc2ccccc2s1"
measured = "> 150 µM (not active)"

[[record]]
compound = "O=C(NC(=S)NNC(=O)c1ccccc1[N+](=O)[O-])c1ccc(Br)cc1"
measured = "> 150 µM (not active)"

[[record]]
compound = "N=C(N)c1ccc(OCCCCCOc2ccc(C(=N)N)cc2)cc1"
measured = "27.9 µM (active)"

[[record]]
compound = "O=C(CSC(=S)N1CCCCC1)Nc1nc(-c2ccccc2)c(-c2ccccc2)o1"
measured = "> 150 µM (not active)"

[[record]]
compound = "CCC1=NN(C(=O)c2ccccc2O)C(O)(c2ccccc2)C1 (stereo not given)"
measured = "> 150 µM (not active)"

[[record]]
compound = "Cc1cc2oc(=O)cc(CN(C)Cc3ccccc3)c2cc1C(C)C"
measured = "8.46 µM (active)"

[[record]]
compound = "COc1ccc(NC(S)=Nc2nc(CC(=O)Nc3ccccc3OC)cs2)cc1"
measured = "> 150 µM (not active)"

[[record]]
compound = "COc1ccc2oc(C(=O)N3CCN(C(c4ccccc4)c4ccccc4)CC3)c(C)c2c1"
measured = "4.97 µM (active)"

[[record]]
compound = "CCCOC(=O)c1ccc(Oc2c[nH]nc2-c2ccc(O)cc2O)cc1"
measured = "> 150 µM (not active)"

[[record]]
compound = "Cc1ccc(C(C)C)cc1NC(=O)Nc1ccc([N+](=O)[O-])cc1"
measured = "10.8 µM (active)"

[[record]]
compound = "CC(C)C(=O)NC(c1cccs1)c1cc([N+](=O)[O-])c2cccnc2c1O (stereo not given)"
measured = "> 150 µM (not active)"

[[record]]
compound = "COc1ccc(-c2c[nH]nc2-c2ccc(OC)cc2)cc1"
measured = "> 150 µM (not active)"

[[record]]
compound = "CCCCCCCCCCC(=O)NNC(=O)c1c(O)c2ccccc2n(CC)c1=O"
measured = "> 150 µM (not active)"

[[record]]
compound = "O=c1cc(N2CCCCC2)c(-c2ccccc2)nn1Cc1ccc(Cl)cc1Cl"
measured = "> 150 µM (not active)"

[[record]]
compound = "O=C(COc1cccc(Cl)c1)Nc1ccccc1N1CCCCC1"
measured = "11.1 µM (active)"

[[record]]
compound = "CC(C)(C)c1ccccc1OCCCCCn1ccnc1"
measured = "> 150 µM (not active)"

[[record]]
compound = "COc1ccc(-c2nn(-c3ccccc3)cc2/C=C/C(=O)N2CCN(c3ccccn3)CC2)cc1"
measured = "> 150 µM (not active)"

[[record]]
compound = "CC(=N)/C(C#N)=C(/O)CSc1nc2cc(Cl)ccc2c(=O)n1Cc1ccco1"
measured = "> 150 µM (not active)"

[[record]]
compound = "CC(=O)NS(=O)(=O)c1ccc(/N=c2\\ssc3c2-c2ccc(C)cc2NC3(C)C)cc1"
measured = "> 150 µM (not active)"


---

List of EC50 values.
- System: BJ
- assay.remarks: cells
- Format: functional, cell-based
- conditions: Homo sapiens
The source made the active and inactive calls.
measured.quantity: EC50

[[record]]
compound = "Cc1cc[n+](CC(=O)c2cccc([N+](=O)[O-])c2)c2ccccc12"
measured = "> 150 µM (not active)"

[[record]]
compound = "CC1=CC(C)(C)N(S(=O)(=O)c2ccc(C)cc2)c2cc(C)ccc21"
measured = "2.65 µM (active)"

[[record]]
compound = "CCC(CC)c1nnc(NC(=O)CC(C)c2ccccc2)s1 (stereo not given)"
measured = "> 150 µM (not active)"

[[record]]
compound = "O=Cc1[nH]c2ccccc2c1N(C(=O)CCl)c1ccc([N+](=O)[O-])cc1"
measured = "7.89 µM (active)"

[[record]]
compound = "COc1cccc(NC(=O)n2ncc3c(C)cccc32)c1"
measured = "8.05 µM (active)"


---

List of IC50 values.
- target.or.test.system: UniProt:P03070
- Sequence (P03070 whole entry): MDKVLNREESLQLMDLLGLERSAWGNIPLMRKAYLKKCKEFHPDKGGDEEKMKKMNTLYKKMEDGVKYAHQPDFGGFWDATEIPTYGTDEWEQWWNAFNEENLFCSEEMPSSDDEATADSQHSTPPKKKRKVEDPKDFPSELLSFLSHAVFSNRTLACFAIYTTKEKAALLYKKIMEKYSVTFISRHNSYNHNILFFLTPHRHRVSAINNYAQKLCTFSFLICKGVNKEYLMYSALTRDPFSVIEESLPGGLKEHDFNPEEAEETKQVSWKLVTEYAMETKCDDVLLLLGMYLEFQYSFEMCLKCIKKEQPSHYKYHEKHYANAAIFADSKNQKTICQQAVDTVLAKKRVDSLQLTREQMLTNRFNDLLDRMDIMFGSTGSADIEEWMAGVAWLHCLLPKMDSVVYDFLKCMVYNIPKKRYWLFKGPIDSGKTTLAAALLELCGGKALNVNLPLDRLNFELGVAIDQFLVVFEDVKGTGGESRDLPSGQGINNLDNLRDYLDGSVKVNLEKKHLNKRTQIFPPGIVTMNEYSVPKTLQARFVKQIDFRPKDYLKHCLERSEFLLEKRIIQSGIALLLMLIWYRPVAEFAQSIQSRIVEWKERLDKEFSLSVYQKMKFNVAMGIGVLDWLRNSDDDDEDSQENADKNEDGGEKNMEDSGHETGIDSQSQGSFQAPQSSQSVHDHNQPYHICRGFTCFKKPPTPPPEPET
- Assay type: functional, Betapolyomavirus macacae
Active and inactive are the calls of the source.
measured.quantity: IC50

[[record]]
compound = "Cc1cc(NC(=O)CN2CCN(c3ccc(O)cc3)CC2)no1"
measured = "9.24 µM (active)"

[[record]]
compound = "O=C(O)c1ccc(-n2cccc2/C=C2/NC(=O)N(c3ccccc3)C2=O)cc1"
measured = "> 100 µM (active)"

[[record]]
compound = "NC(=O)N/N=C/c1c(Sc2nnnn2-c2ccccc2)nc2ccccn2c1=O"
measured = "60.5 µM (active)"

[[record]]
compound = "O=[N+]([O-])c1ccc(-[n+]2ccc3ccccc3c2)c([N+](=O)[O-])c1"
measured = "79.1 µM (active)"

[[record]]
compound = "CCn1c(=O)n(CC)c2cc(N)ccc21"
measured = "14 µM (active)"

[[record]]
compound = "N#CC1=C2SCN(Cc3ccco3)CN2C(=O)CC1c1ccc(Cl)cc1 (stereo unspecified)"
measured = "> 100 µM (active)"

[[record]]
compound = "O=C1N/C(=C\\c2ccc(O)cc2)C(O)=C1/C=N/Cc1ccccc1"
measured = "12.1 µM (active)"

[[record]]
compound = "Cc1ccc(C(=O)C2CCN(CC(=O)Nc3ccc(N(C)C)cc3)CC2)cc1"
measured = "14.5 µM (active)"

[[record]]
compound = "O=C(CN1C(=O)/C(=C/c2ccco2)SC1=S)Nc1ccc(C(=O)O)c(O)c1"
measured = "76.9 µM (active)"

[[record]]
compound = "COc1cccc(C(=O)Nc2ccc3c(c2)n(C)c(=O)n3C)c1"
measured = "> 100 µM (active)"

[[record]]
compound = "O=C(O)C(Cc1ccccc1)N1C(=O)/C(=C/C=C/c2ccco2)SC1=S (stereo unspecified)"
measured = "33.5 µM (active)"


---

- System: HEK293
- assay.remarks: cells
- Type: functional, cell-based
- conditions: Homo sapiens
Activity calls are given as the source filed them.
Possible outcomes: 1 for active, -1 for inactive

[[record]]
compound = "C=CCn1c(C)cc(C(=O)COc2ccc(C)nc2[N+](=O)[O-])c1C"
target_or_test_system = "HEK293"
qualitative_label = 1

[[record]]
compound = "COc1cc(OC)c(OC)cc1/C=C1\\CC(C)C/C(=C\\c2cc(OC)c(OC)cc2OC)C1=O (centres undefined)"
target_or_test_system = "HEK293"
qualitative_label = 1

[[record]]
compound = "CCCc1nc(SCC(=O)N2CCC(Cc3ccccc3)CC2)c2c(=O)n(C)c(=O)n(C)c2n1"
target_or_test_system = "HEK293"
qualitative_label = -1

[[record]]
compound = "NC(=O)c1c(NC(=O)C(=O)N2CCOCC2)sc2c1CCCC2"
target_or_test_system = "HEK293"
qualitative_label = -1


---

List of IC50 values.
- target.or.test.system: 26S proteasome non-ATPase regulatory subunit 14 (Homo sapiens, UniProt O00487)
- Sequence (O00487 whole entry): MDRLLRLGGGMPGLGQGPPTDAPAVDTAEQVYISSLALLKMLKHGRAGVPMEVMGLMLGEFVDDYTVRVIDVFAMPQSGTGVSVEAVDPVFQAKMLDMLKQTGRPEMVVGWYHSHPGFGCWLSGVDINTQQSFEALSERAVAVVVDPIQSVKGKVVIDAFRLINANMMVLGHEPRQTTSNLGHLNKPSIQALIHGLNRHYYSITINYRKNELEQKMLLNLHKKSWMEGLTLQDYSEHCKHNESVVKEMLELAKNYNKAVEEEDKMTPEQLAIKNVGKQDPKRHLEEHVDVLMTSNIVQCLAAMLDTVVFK
- assay.remarks: inhibition of proteasome subunit RPN11 – biochemical, fluorescence polarization, uHTS hits, confirmation (AID 602368)
- Type: functional
The source made the active and inactive calls.
measured.quantity: IC50

[[record]]
molecule = "CCOc1ccc(C(=O)CCC(=O)N2CCN(c3ncccn3)CC2)cc1"
measured = "38.6 µM (active)"

[[record]]
molecule = "Cc1ccccc1C(=O)/C=C1/SCC(=O)N1C"
measured = "18.9 µM (active)"

[[record]]
molecule = "CCCCC1=CC2=CC(=O)C(C)(OC(=O)C3CCCC3)C(=O)C2=CO1 (stereo not drawn)"
measured = "7.64 µM (active)"

[[record]]
molecule = "CC(C)Oc1ccc(/C=C(\\NC(=O)/C=C/c2ccco2)C(=O)NCCc2nc3ccccc3[nH]2)cc1"
measured = "57.5 µM (active)"

[[record]]
molecule = "CCCCCCCCCCCCCCC(O)C[N+](C)(CCO)CCO (stereo not drawn)"
measured = "25.3 µM (active)"

[[record]]
molecule = "O=C(CN1C(=O)/C(=C/c2ccco2)SC1=S)Nc1ccc(C(=O)O)c(O)c1"
measured = "19.4 µM (active)"

[[record]]
molecule = "O=C(O)C(Cc1ccccc1)N1C(=O)/C(=C/C=C/c2ccco2)SC1=S (stereo not drawn)"
measured = "7.33 µM (active)"

[[record]]
molecule = "COc1cc2cc3c(N)c(C(=O)Nc4sc(C)c(C)c4C#N)sc3nc2cc1OC"
measured = "48.3 µM (active)"

